target: hCB1 (Homo sapiens, UniProt P21554); assay: bioSensAll ebBRET signaling profiling, hCB1; assay type: cell-based; set-up: host or cells: HEK293SL cells, transient PEI transfection; conditions: Gi1 biosensor; Log [Compound] (M) -8.39794
Sequence (P21554 whole entry): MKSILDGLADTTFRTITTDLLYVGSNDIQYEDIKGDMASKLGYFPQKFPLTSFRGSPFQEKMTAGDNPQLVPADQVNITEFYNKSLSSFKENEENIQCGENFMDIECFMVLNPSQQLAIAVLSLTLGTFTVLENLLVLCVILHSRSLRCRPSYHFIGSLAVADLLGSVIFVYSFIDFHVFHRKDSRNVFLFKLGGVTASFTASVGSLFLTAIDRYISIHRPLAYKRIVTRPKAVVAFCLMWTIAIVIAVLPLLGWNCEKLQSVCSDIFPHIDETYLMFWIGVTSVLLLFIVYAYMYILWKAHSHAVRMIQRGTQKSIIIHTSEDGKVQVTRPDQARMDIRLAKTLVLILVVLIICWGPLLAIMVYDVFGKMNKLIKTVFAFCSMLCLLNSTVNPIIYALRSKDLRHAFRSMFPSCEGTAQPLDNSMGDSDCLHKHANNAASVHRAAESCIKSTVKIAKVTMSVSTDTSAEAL

- molecule: "Cc1cc(C(=O)N2CC3(CCC3)[C@@H]2[C@@H]2CCCO2)nn1-c1cccc(C(F)(F)F)c1"
  Gi1 hCB1 response: 6.792
- molecule: "Cc1cc(C(=O)NC(c2ccccc2)c2ccco2)nn1-c1cccc(C(F)(F)F)c1 (stereo not drawn)"
  Gi1 hCB1 response: 0.4809
- molecule: "Cc1cc(C(=O)N(C)C(c2ccccc2)c2ccco2)nn1-c1cccc(C(F)(F)F)c1 (stereo not drawn)"
  Gi1 hCB1 response: -3.727
- molecule: "COc1cccc(C(NC(=O)c2cc(C)n(-c3cccc(C(F)(F)F)c3)n2)c2ccco2)c1 (stereo not drawn)"
  Gi1 hCB1 response: 12.6788
- molecule: "Cc1cc(C(=O)N2CC3(CCC3)[C@@H]2[C@H]2CCCO2)nn1-c1cccc(C(F)(F)F)c1 (single isomer, unassigned)"
  Gi1 hCB1 response: -4.779
- molecule: "Cc1cc(C(=O)N2CC3(CCC3)[C@H]2[C@@H]2CCCO2)nn1-c1cccc(C(F)(F)F)c1"
  Gi1 hCB1 response: 1.018
- molecule: "COC(=O)[C@@H]1[C@@H]2CCC[C@@H]2CN1C(=O)c1cc(C)n(-c2cccc(Cl)c2)n1 (racemic)"
  Gi1 hCB1 response: 0.6152
- molecule: "COC(=O)[C@@H]1[C@@H]2CC[C@@H]2CN1C(=O)c1cc(C)n(-c2cccc(C(F)(F)F)c2)n1"
  Gi1 hCB1 response: -2.8987
- molecule: "COC(=O)C(NC(=O)c1cc(C)n(-c2cccc(F)c2)n1)c1cccs1 (stereo not drawn)"
  Gi1 hCB1 response: -12.3884
